Attribution: paper PMC11951083

measurement.target: H3 (h) (Homo sapiens, UniProt Q9Y5N1)
Sequence (Q9Y5N1 whole entry): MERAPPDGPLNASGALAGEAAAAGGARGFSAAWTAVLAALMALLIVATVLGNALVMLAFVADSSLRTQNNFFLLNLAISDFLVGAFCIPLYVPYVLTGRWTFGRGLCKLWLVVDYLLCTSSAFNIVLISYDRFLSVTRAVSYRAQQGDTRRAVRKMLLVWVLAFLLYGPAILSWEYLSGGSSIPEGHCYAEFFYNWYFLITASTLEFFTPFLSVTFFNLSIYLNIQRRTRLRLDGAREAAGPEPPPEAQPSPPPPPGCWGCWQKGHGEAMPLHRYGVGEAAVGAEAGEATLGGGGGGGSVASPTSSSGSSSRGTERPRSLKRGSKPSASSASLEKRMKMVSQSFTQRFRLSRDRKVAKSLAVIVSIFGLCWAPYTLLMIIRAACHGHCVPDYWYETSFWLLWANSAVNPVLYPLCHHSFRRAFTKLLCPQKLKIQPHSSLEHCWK
procedure.details: H3 (h) (agonist radioligand)
experimental.parameters: read-out: Inhibition H3 (h) (agonist radioligand)
readout: inhibition at 10 µM (%)

O=C(N1CC2(CC(CC3=C4C=CC=[N+]4[B-](F)(F)n4cccc43)C2)C1)N1CC2(CC(n3cnc(C4CC4)n3)C2)C1    -3.7
O=C(OC(C(F)(F)F)C(F)(F)F)N1CC2(CC(CC3=C4C=CC=[N+]4[B-](F)(F)n4cccc43)C2)C1    -7.2
O=C1CO[C@H]2CCN(C(=O)N3CC4(CC(CC5=C6C=CC(c7ccc[nH]7)=[N+]6[B-](F)(F)n6cccc65)C4)C3)C[C@H]2N1    1.8
O=C(O[C@H](CO)C(F)(F)F)N1CC2(CC(CC3=C4C=CC=[N+]4[B-](F)(F)n4cccc43)C2)C1    5.2
O=C(OC(C(F)(F)F)C(F)(F)F)N1CC2(CC(CC3=C4C=CC(c5ccc[nH]5)=[N+]4[B-](F)(F)n4cccc43)C2)C1    7.3

* * *

Measured inhibition at 10 µM, listed per entry for reference.
measurement.target: ACE (h) (Homo sapiens)
Sequence (P12821 30-1306): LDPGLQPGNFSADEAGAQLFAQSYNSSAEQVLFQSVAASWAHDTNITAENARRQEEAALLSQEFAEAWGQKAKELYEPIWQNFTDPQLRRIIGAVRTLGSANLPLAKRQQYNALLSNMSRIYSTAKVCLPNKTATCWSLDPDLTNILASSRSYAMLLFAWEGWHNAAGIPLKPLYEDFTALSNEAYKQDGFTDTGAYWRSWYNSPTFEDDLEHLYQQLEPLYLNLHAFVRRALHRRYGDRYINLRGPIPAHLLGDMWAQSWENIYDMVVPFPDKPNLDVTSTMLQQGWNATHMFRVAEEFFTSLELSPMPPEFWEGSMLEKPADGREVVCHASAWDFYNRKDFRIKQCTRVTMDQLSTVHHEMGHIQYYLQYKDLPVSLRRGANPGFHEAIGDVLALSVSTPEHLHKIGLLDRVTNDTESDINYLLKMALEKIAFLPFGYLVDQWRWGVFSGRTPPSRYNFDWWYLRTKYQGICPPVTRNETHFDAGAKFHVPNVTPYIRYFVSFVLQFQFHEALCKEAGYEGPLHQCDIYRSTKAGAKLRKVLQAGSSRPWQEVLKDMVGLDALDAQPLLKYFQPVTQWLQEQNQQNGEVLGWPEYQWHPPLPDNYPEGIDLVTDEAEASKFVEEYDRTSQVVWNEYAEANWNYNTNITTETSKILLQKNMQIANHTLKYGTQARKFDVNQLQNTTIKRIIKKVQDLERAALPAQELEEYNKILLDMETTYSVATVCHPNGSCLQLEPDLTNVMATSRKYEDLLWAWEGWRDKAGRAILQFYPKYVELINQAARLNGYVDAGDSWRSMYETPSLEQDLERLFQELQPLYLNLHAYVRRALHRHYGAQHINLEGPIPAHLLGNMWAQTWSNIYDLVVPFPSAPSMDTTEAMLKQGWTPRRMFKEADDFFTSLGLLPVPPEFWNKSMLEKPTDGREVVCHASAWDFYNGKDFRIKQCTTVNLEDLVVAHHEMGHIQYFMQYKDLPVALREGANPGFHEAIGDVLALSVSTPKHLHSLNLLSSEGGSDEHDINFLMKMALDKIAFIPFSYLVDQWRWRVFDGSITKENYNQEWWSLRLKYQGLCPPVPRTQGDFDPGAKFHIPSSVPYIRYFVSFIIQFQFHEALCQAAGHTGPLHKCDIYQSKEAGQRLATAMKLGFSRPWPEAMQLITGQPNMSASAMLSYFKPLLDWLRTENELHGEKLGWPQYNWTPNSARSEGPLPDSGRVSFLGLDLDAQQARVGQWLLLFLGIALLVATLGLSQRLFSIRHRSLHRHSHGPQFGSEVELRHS
procedure.details: ACE (h)
experimental.parameters: read-out: Inhibition ACE (h)
readout: inhibition at 10 µM (%)

O=C1CO[C@H]2CCN(C(=O)N3CC4(CC(CC5=C6C=CC(c7ccc[nH]7)=[N+]6[B-](F)(F)n6cccc65)C4)C3)C[C@H]2N1    -21.2
O=C(OC(C(F)(F)F)C(F)(F)F)N1CC2(CC(CC3=C4C=CC=[N+]4[B-](F)(F)n4cccc43)C2)C1    -15.8
O=C(O[C@H](CO)C(F)(F)F)N1CC2(CC(CC3=C4C=CC=[N+]4[B-](F)(F)n4cccc43)C2)C1    -10.4
O=C(N1CC2(CC(CC3=C4C=CC=[N+]4[B-](F)(F)n4cccc43)C2)C1)N1CC2(CC(n3cnc(C4CC4)n3)C2)C1    -21.1
O=C(OC(C(F)(F)F)C(F)(F)F)N1CC2(CC(CC3=C4C=CC(c5ccc[nH]5)=[N+]4[B-](F)(F)n4cccc43)C2)C1    -4.4

* * *

measurement.target: UniProtKB P10275
Sequence (P10275 1-920): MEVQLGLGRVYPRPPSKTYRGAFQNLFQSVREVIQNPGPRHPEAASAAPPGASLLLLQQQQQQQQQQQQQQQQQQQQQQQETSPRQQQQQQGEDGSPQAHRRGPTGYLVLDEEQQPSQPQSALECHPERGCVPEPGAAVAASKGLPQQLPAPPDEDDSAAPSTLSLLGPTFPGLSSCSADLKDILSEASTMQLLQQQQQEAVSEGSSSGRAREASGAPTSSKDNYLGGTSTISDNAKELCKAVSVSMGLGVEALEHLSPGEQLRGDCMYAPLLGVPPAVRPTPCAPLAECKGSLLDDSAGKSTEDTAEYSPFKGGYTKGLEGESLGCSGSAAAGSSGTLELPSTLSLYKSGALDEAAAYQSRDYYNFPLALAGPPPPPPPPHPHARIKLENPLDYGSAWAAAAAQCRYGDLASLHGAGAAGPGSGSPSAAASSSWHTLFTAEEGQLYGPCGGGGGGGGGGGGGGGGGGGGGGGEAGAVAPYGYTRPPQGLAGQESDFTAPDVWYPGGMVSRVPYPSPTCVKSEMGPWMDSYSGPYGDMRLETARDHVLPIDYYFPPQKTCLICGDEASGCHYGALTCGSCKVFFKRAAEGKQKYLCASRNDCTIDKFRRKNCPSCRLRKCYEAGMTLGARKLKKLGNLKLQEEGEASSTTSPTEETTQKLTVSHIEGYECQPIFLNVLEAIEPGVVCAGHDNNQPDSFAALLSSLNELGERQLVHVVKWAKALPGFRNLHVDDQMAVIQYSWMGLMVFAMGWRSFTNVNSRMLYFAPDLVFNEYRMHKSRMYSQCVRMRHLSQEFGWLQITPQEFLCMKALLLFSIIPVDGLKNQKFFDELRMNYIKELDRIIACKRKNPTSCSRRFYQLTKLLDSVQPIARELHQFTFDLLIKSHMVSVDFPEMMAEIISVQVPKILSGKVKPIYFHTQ
procedure.details: AR(h) (agonist radioligand)
experimental.parameters: read-out: Inhibition AR(h) (agonist radioligand)
readout: inhibition at 10 µM (%)

O=C1CO[C@H]2CCN(C(=O)N3CC4(CC(CC5=C6C=CC(c7ccc[nH]7)=[N+]6[B-](F)(F)n6cccc65)C4)C3)C[C@H]2N1    -1.4
O=C(N1CC2(CC(CC3=C4C=CC=[N+]4[B-](F)(F)n4cccc43)C2)C1)N1CC2(CC(n3cnc(C4CC4)n3)C2)C1    -19.8
O=C(OC(C(F)(F)F)C(F)(F)F)N1CC2(CC(CC3=C4C=CC=[N+]4[B-](F)(F)n4cccc43)C2)C1    4.2
O=C(OC(C(F)(F)F)C(F)(F)F)N1CC2(CC(CC3=C4C=CC(c5ccc[nH]5)=[N+]4[B-](F)(F)n4cccc43)C2)C1    6
O=C(O[C@H](CO)C(F)(F)F)N1CC2(CC(CC3=C4C=CC=[N+]4[B-](F)(F)n4cccc43)C2)C1    -14.2
